B1: LCOR (parent)
chain: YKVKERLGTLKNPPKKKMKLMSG

Variants of: B1
Assay: protein stability index of a GFP-peptide fusion (GPS, HEK-293T) (PSI 1-6); higher = more stable;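 further: lentivirally expressed fusions sorted by FACS into six bins by GFP to DsRed ratio, PSI derived from sequencing read proportions per bin multiplied by bin number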
Conditions: c terminus: native
reported endpoint: protein stability index

• YKVKERLGGLKNPPKKKMKLMSG = 1.23
• YKVKERLGTLKNPKKKKMKLMSG = 1.77
• YKVKERLGTLKNPPKKKMKLMST = 3
• YGVKERLGTLKNPPKKKMKLMSG = 1.64
• YKVKERLGTLKNPPKKKMCLMSG = 2.15
• YKVKERLGTLKNPPKDKMKLMSG = 2.35
• YKVKERLGTLKNPPPKKMKLMSG = 2.99
• YKVKERLGTLKQPPKKKMKLMSG = 2.6
• YKVKERLGTLKNFPKKKMKLMSG = 2.63
• YKVKERMGTLKNPPKKKMKLMSG = 1.37
• YKVKERLGTLKNPHKKKMKLMSG = 2.87
• YKVKERLNTLKNPPKKKMKLMSG = 1.27
• YKVKERLGTLKNPPKKKMKLHSG = 3.33
• YKVKERLGTLKNDPKKKMKLMSG = 1.93
• YSVKERLGTLKNPPKKKMKLMSG = 1.8
• YKVKEFLGTLKNPPKKKMKLMSG = 2.2
• YKVKERLGTLKNPPKKKMKYMSG = 2.18
• YKVKERLGTLKNPPKKKMKVMSG = 2.81
• YKVKERLGTLKMPPKKKMKLMSG = 1.26
• YKVKCRLGTLKNPPKKKMKLMSG = 1.74
• YKVKERLGTLKNPPKKKMELMSG = 2.5
• YKVKEILGTLKNPPKKKMKLMSG = 2.49
• YKVKERLGTKKNPPKKKMKLMSG = 1.85
• YKVKERLGTLKNPPKKKVKLMSG = 2
• VKVKERLGTLKNPPKKKMKLMSG = 2.05
• YKVKERLGTLKNPDKKKMKLMSG = 1.71
• YKKKERLGTLKNPPKKKMKLMSG = 1.98
• YKVKERLGTLKNPPKKKGKLMSG = 2.59
• YKVKEQLGTLKNPPKKKMKLMSG = 2.16
• YKVLERLGTLKNPPKKKMKLMSG = 2.23
• YKVDERLGTLKNPPKKKMKLMSG = 1.45
• YAVKERLGTLKNPPKKKMKLMSG = 1.48
• YKVKTRLGTLKNPPKKKMKLMSG = 2.22
• YKVKERLGTLKNPPKKKMKPMSG = 3.94
• YKVKERLGTLKNPPKKKMDLMSG = 2.64
• YKVKERLHTLKNPPKKKMKLMSG = 1.92
• YKVKERLGTLKNPPKKKMKLMCG = 2.14
• YKVKERLGTLKNPLKKKMKLMSG = 1.32
• YKVKEDLGTLKNPPKKKMKLMSG = 1.46
• YKVKERLGTTKNPPKKKMKLMSG = 2.52
• YKPKERLGTLKNPPKKKMKLMSG = 2.27
• YKVKARLGTLKNPPKKKMKLMSG = 1.75
• YKVKERLGTLENPPKKKMKLMSG = 1.69
• YKVKERLGTLKNHPKKKMKLMSG = 2.49
• YKVKERLGQLKNPPKKKMKLMSG = 2.64
• SKVKERLGTLKNPPKKKMKLMSG = 2.2
• YKVKERLGTLKNPPKKKMKDMSG = 3.66
• YKVKERLGTLKNPPKKKQKLMSG = 2.23
• YKVKWRLGTLKNPPKKKMKLMSG = 3.07
• YKNKERLGTLKNPPKKKMKLMSG = 2.69
• YKVKERLGTLKNPPKKKWKLMSG = 1.36
• YKVKERLGTLKNPWKKKMKLMSG = 2.41
• YKVKERLGTLKNPPKKKMKWMSG = 2.95
• YKVKERLGTLKNPPKKKPKLMSG = 2.03
• YKVKERLGTLKKPPKKKMKLMSG = 2.25
• YKVKERLGTLKNPPKKLMKLMSG = 1.34
• YKVKERLGTLKNPPKKKMHLMSG = 2.51
• YKVKERLGTLDNPPKKKMKLMSG = 1.76
• YKVKERLGTLKNPPKKKMKKMSG = 3.8

Every entry's value here was drawn from the supplement of paper PMC10567573.
